Test: Viability Counterscreen for CMV-Luciferase Assay of Inhibitors of ATXN expression; note: nearly all actives have a fitted effect of over 55% in size
Details: HEK-293 CMV-luciferase cells viability, protease fluorescence, 24 h
Excerpt: PI: Daniel Scoles Ph.D. University of Utah School of Medicine, Salt Lake City, Utah MLPCN Grant: NS073009 Spinocerebellar ataxia type 2 (SCA2) is a multisystem neurodegenerative disease caused by a dominantly acting mutation leading to expansion of a polyQ domain in the ataxin-2 protein (ATXN2). SCA2 patients develop progressive ataxia and later lose function in other neuronal systems. […] Here we describe a 5-7 dose quantitative high thoroughput screen (qHTS) for compounds lowering ATXN2 expression. […]
Screen size: about 2,100 compounds; about 320 (15%) were called active. Inconclusive results (about 52%) are left out. Calls come from the whole dose curve; as a rule, active = well fitted cell-killing curve with a large enough effect; inconclusive = small, poorly fitted or top-dose-only effect, or effect the other way; inactive = flat fitted curve, though single readings scatter. Some of the results follow.
Hi there, use one of these labels in your reply, thanks! 1 (yes) for active, 0 (no) for inactive

Here are 9 molecules together with their reported answers.
COc1ccccc1NS(=O)(=O)c1cccc(C(=O)N/N=C/c2ccc([N+](=O)[O-])o2)c1 | 1 (yes)
COC(=O)C1=C(C)N(c2ccc(Cl)c(Cl)c2)C(=O)C1 | 0 (no)
Cc1ncc(CO)c(/C=N/NC(=O)c2cccc(S(=O)(=O)N3CCCC3)c2)c1O | 0 (no)
CC(C)CCNC(=O)COc1cccc2c1OC(C)(C)C2 | 0 (no)
Cn1nccc1C(=O)N1CCCC(C(=O)c2cccc3ccccc23)C1 (stereo not given) | 0 (no)
Cc1ccc2[nH]c(O)c(N=NC(=O)C3CC3c3ccccc3)c2c1Br (stereo not given) | 0 (no)
Cc1c(C(=O)N2c3ccccc3Sc3ccccc32)cccc1[N+](=O)[O-] | 0 (no)
COc1ccc(C)cc1Nc1nc(C)nc2sc(C)cc12 | 0 (no)
O=C(N/N=C/c1cc(Cl)cc([N+](=O)[O-])c1O)c1cccc(S(=O)(=O)N2CCOCC2)c1 | 0 (no)

[Q] What was the test verdict on "Cc1cc(C)nc(NNS(=O)(=O)c2ccc(F)c(Cl)c2)n1" ?
[A] 0 (no)

###

Experiment: Viability Counterscreen for CMV-Luciferase Assay of Inhibitors of ATXN expression; note: nearly all actives have a fitted effect of over 55% in size
Settings: HEK-293 CMV-luciferase cells viability, protease fluorescence, 24 h
From the text: PI: Daniel Scoles Ph.D. University of Utah School of Medicine, Salt Lake City, Utah MLPCN Grant: NS073009 Spinocerebellar ataxia type 2 (SCA2) is a multisystem neurodegenerative disease caused by a dominantly acting mutation leading to expansion of a polyQ domain in the ataxin-2 protein (ATXN2). SCA2 patients develop progressive ataxia and later lose function in other neuronal systems. […] Here we describe a 5-7 dose quantitative high thoroughput screen (qHTS) for compounds lowering ATXN2 expression. […]
In all, about 2,100 compounds went through this assay and about 320 (15%) were called active. Inconclusive results (about 52%) are left out. The call rests on the fitted dose curve; in most records, active means well fitted cell-killing curve with a large enough effect; inconclusive means small, poorly fitted or top-dose-only effect, or effect the other way; inactive means flat fitted curve, though single readings scatter. The list shows a part of the results.
Answer with one of the outcomes active, inactive

[Q] Record lookup: outcome of this test for "Cn1c(/C=C/c2cccc([N+](=O)[O-])c2)c([N+](=O)[O-])c(=O)n(C)c1=O" ?
[A] active

[Q] Returns: the outcome recorded for "CN(C)CCNC(=O)c1cccc(-c2cnc3c(NC=O)cc(-c4cccc(C(F)(F)F)c4)cn23)c1" in this assay.
[A] active

[Q] Given "Cc1ccc(CN2CCC(c3nc4ccc(Cl)cc4[nH]3)CC2)cc1" , state the outcome it received in this test.
[A] inactive
